Data credit: PubChem BioAssay (NCI)

# System: NCI-H226 lung
# Protocol notes: NCI tumour cell line growth inhibition, 48 h
Could you please report measured GI50 for the items listed next?

Query block: Dear colleague, I am looking for the recorded GI50 of the following molecule: Nc1nc(-c2cccc3ccccc23)cc2ccccc12
Result block: 1.12 µM

Query block: Dear colleague, I am looking for the recorded GI50 of the following molecule: O=C([O-])c1ccc2c(c1)-c1nc-2nc2[n-]c(nc3nc(nc4[n-]c(n1)c1ccc(C(=O)[O-])cc41)-c1ccc(C(=O)[O-])cc1-3)c1ccc(C(=O)[O-])cc21.[Gd+3].[K+]
Result block: > 100 µM

Query block: Dear colleague, I am looking for the recorded GI50 of the following molecule: COc1cc(CC(C)C(C)Cc2ccc(O)c(OC)c2)ccc1O (stereo not drawn)
Result block: 16.8 µM
